test system: M14 melanoma; test: NCI-60 one-dose screen, 48 h (100 = growth as untreated, 0 = no growth, -100 = all killed); conditions: 10 µM unless noted
Compounds without any hit were thinned out: in the full panel of roughly 83,000, 20% have a hit.
ASSAY READOUT: growth (%)
One number for each entry, in %.

Use the examples below as a reference point.
O=C(Nc1ccc(OCc2nnc(-c3ccc(Cl)cc3)o2)c(F)c1)Nc1ccc(Cl)c(Cl)c1 :: 61.5
CCn1cc(C(=O)O)c(=O)c2cc(F)c(N3CCN(S(=O)(=O)c4ccc(Cl)cc4Cl)CC3)cc21 :: 15.9
COC1=CC(c2ccc[nH]2)=N/C1=C\c1[nH]c(C)c(C(=O)CCCCC(=O)Nc2ccccc2)c1C :: 13.1
COc1ccc(OC)c(-c2ccc(-c3ccccc3N)c3[nH]c4ccccc4c23)c1 :: 84.6
Cc1ccc2nc(-c3c(N)n[nH]c3CCCO)[nH]c(=O)c2c1 :: 102

The following compounds each have a reported value; give each one's growth.
1. COc1ccc(C(=O)N2CCN(C(=O)c3cc(OC)c(OC)c(OC)c3)CC2)cc1OCCCCOc1cc2c(cc1OC)C(=O)N1CCC[C@H]1C=N2
2. CCN1C(=O)N(CC)C2C1NN=c1s/c(=C3\C(=O)N(C4CCCC4)c4ccccc43)c(=O)n12 (centres undefined)
3. Cc1ccnc2nc(C(=O)OCC(=O)Nc3ccc(-c4ccccc4)cc3)nn12

[A]
[115, 2.66, 99.9]

Kindly give each listed record's growth.
1. CCn1cc(C2NC(=O)c3cc(F)ccc3N2)c2cccc(Cl)c21 (centres undefined)
2. COc1ccc2c(c1)NC(=O)CN2c1nc(NC2CC2)nc2ccccc12
3. COc1cccc2cc(-c3cc4ccccc4[nH]3)/c(=N/C(=S)Nc3ccccc3)oc12

[A]
[1.23, 6.86, 70.6]

----------
I'd be grateful if you could share measured growth for these entries.
system: CAKI-1 renal; assay: NCI-60 one-dose screen, 48 h (100 = growth as untreated, 0 = no growth, -100 = all killed); conditions: 10 µM unless noted
About 83,000 compounds went through this panel and 20% of them were active in at least one assay; those are over-represented in the sample as a whole.
Answers are plain numbers, in %.

# annotated cases, reported growth shown
COc1cc(Cn2c(SCC(=O)Nc3ccc(Cl)cc3)nc3ccccc3c2=O)cc(OC)c1OC :: 71.1
COc1ccc(/C=N/NC(=O)Cn2c(Cc3cccc4ccccc34)nc3ccccc32)cc1 :: 83.8
CCN(Cc1ccccc1)c1ccc(SC#N)cc1 :: 92.6
COc1ccc(-c2cn[nH]c2-c2cc(OC)c3c(c2)OCO3)cc1 :: 24.9
O=C1CCC(=O)N1Cc1ccccc1 :: 94.2

Please report growth for every entry that follows.
1. COc1ccc(NC(=S)/N=c2\oc3c(OC)cccc3cc2-c2cc3ccccc3[nH]2)cc1
2. COc1cc(NS(C)(=O)=O)ccc1Nc1c2ccc([N+](=O)[O-])cc2nc2c(C)cccc12
3. O=C(CNc1ccc(Cl)cc1)Nc1ccc(-c2nc3ccccc3s2)cc1

[A]
[28.3, -21.2, 20.2]

----------
test system: NCI-H522 lung; assay: NCI-60 one-dose screen, 48 h (100 = growth as untreated, 0 = no growth, -100 = all killed); conditions: 10 µM unless noted
Compounds without any hit were thinned out: in the full panel of roughly 83,000, 20% have a hit.
Given measured growth, output MET if it is greater than or equal to 40% and NOT MET if not.

Observe how each entry below is paired with its result.
Cc1ccc(Cn2c(-c3cccs3)nc3ccccc32)cc1 :: MET
Nc1cc2c(cc1N)-c1cc(N)c(N)cc1C2 :: MET
FC(F)(F)c1cccc(-n2nnc3cnc(Nc4ccc(N5CCCCC5)cc4)nc32)c1 :: NOT MET
COc1cccc2cc(-c3cc4ccccc4[nH]3)c(=NC(=O)c3ccc(Cl)cc3)oc12 :: NOT MET

[Q] Reported growth reaches at least 40% for O=C(Nc1ccccc1)OCC1OCOC(COC(=O)Nc2ccccc2)C1OC(=O)Nc1ccccc1 (centres undefined) ?
[A] NOT MET

[Q] What about OC1CC2c3ccccc3C1c1ccccc12 (centres undefined) ?
[A] MET

[Q] And the next one, COc1cc(C(=O)CCCl)ccc1O ?
[A] NOT MET

[Q] What do you have for COc1ccc(Cn2cc(COc3cc(/C=C/C(=O)c4cc(OC)c(OC)c(OC)c4)ccc3OC)nn2)cc1 ?
[A] MET

[Q] And for COc1ccc(/C=C/C(=O)c2cccc(B(O)O)c2)cc1O ?
[A] MET
